assayed-target: human FXR-LBD (GST-FXR-LBD) (Homo sapiens)
Construct: the human FXR-LBD (residues 234–472) was expressed as a GST fusion protein GST-FXR-LBD; made in house; host or cells: E. coli BL21(DE3)
Sequence (Q96RI1 234-472 isoform Q96RI1-2): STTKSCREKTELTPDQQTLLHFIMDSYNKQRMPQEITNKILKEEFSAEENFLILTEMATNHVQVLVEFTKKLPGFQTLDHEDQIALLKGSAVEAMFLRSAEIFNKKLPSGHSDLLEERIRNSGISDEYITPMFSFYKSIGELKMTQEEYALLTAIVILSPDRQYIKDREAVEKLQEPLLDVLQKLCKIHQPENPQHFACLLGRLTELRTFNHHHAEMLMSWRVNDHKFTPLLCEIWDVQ
experiment: HTRF coactivator recruitment assay, antagonist mode (in the presence of 50 μM CDCA)
Assay type: biochemical
setup-conditions: 3.90 μM compound + 50 μM CDCA; replicates; read-out: Relative antagonist activity (%)
endpoint-name: activity at 3.9 µM (%)
Give a bare numeral; the unit % is implied.

compound	activity at 3.9 µM [%]
CC(=O)c1cc2c(cc1C)C(C)(C)C(C)CC2(C)C (stereo not drawn)	93.9
Oc1cc(Cl)ccc1Oc1ccc(Cl)cc1Cl	87.5
O=C1Nc2ccc(Cl)cc2[C@@](C#CC2CC2)(C(F)(F)F)O1	94.6
CCCCCCCC/C=C\CCCCCCCC(=O)NCCO [OEA, oleoyl ethanolamide]	110
O=P(Oc1ccccc1)(Oc1ccccc1)Oc1ccccc1 [TPHP, triphenyl phosphate]	97.3

Now look at this one.
Form entry - test system: human FXR-LBD (GST-FXR-LBD) (Homo sapiens); read-out: activity at 3.9 µM; compound: Clc1ccc(COC(Cn2ccnc2)c2ccc(Cl)cc2Cl)c(Cl)c1 (stereo not drawn) 92.9
